- EXPERIMENTAL_DETAILS: qHTS assay to identify small molecule agonists of H2AX - cell viability counter screen (AID 1224847); also: nearly all actives have a fitted effect of over 30% in size
- CONDITION_SET: CHO-K1 viability, CellTiter-Glo luminescence, 3 h; series mostly up to 154 µM
Results filed as inconclusive are left out. The source made the active and inactive calls. Calls follow the shape of the full dose curve.
Classes used: active, inactive

{"columns": ["MOLECULE", "CLASS_ASSIGNMENT"],
 "data": [
  ["CCCCCC=CCC=CCCCCCCCC(=O)OCC", "inactive"],
  ["C=CC(=C)CCCC(C)(C)OC(C)=O", "inactive"],
  ["O=C1NCCN1", "inactive"],
  ["Cc1nc2ccccn2c(=O)c1CCN1CCC(C(=O)c2ccc(F)cc2)CC1", "inactive"],
  ["CC1=CC(=O)CC(C)(C)C1(O)/C=C/C(C)=C\\C(=O)O (stereo not given)", "inactive"],
  ["C[N+](C)(C)CCOC(N)=O", "inactive"],
  ["OC(CCCN1CCCCC1)(c1ccccc1)c1ccccc1", "inactive"],
  ["N#C/C(=C1/SC[C@@H](c2ccc(Cl)cc2Cl)S1)n1ccnc1", "inactive"],
  ["CO[C@@]12[C@H](COC(N)=O)C3=C(C(=O)C(C)=C(N)C3=O)N1C[C@@H]1N[C@@H]12", "inactive"],
  ["CC1C2CC(CC2C2CCCC(O)C2)C1(C)C (stereo not given)", "active"],
  ["O=C(N/N=C/c1ccc([N+](=O)[O-])o1)c1ccc(O)cc1", "inactive"],
  ["CC(=O)Oc1ccc(C(=C2CCCCC2)c2ccc(OC(C)=O)cc2)cc1", "inactive"],
  ["CCC1(C)CC(=O)NC1=O (stereo not given)", "inactive"],
  ["CC1(C)C2=CCCC(C)(C)[C@]23CC[C@H]1C3", "inactive"],
  ["CCOC(=O)/C=C/C(=O)O", "inactive"]
]}

---

- EXPERIMENTAL_TARGET: Androgen receptor (Homo sapiens) (UniProt P10275)
- Sequence (P10275 whole entry, looked up): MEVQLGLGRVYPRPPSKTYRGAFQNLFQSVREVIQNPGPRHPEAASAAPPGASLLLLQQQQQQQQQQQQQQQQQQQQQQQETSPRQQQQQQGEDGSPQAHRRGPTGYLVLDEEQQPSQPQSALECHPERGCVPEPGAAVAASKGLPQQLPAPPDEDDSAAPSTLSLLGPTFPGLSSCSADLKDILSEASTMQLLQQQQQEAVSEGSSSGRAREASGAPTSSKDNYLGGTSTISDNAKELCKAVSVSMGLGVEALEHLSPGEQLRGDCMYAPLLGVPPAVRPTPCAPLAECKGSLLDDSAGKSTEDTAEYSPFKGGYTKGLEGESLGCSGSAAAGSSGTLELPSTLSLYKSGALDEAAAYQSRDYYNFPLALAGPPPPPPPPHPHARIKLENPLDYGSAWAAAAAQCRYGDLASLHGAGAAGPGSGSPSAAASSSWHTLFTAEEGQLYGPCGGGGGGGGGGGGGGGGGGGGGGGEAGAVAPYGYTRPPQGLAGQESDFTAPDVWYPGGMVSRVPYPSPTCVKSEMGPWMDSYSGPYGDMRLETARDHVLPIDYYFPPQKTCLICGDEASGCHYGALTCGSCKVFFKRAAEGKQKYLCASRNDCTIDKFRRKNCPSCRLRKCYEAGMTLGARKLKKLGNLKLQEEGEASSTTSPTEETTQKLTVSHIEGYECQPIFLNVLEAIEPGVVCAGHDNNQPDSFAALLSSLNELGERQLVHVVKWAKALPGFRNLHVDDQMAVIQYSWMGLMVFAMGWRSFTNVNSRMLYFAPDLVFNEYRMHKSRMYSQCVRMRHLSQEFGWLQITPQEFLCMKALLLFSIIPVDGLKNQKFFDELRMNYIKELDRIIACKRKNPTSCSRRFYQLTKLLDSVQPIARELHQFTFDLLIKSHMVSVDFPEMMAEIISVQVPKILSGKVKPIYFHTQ
- EXPERIMENTAL_DETAILS: qHTS assay to identify small molecule antagonists of the androgen receptor (AR) signaling pathway using the MDA cell line (AID 743042; also: nearly all actives have a fitted effect of over 55% in size)
- CONDITION_SET: MDA-kb2 AR-luc, MMTV luciferase, R1881 antagonist, 16 h; series mostly up to 70.3 µM
Inconclusive results are not listed. Calls of active or inactive are those of the source. Calls follow the shape of the dose curve; as a rule, active = well fitted inhibition curve with a large enough effect in the repeat runs; inconclusive = weak or mixed curves, or effect the other way; inactive = no such curve, though single readings can be large or run the other way.

{"columns": ["CPD_SMILES", "outcome"],
 "data": [
  ["CC(=O)[C@H]1CC[C@H]2[C@@H]3C[C@H](C)C4=CC(=O)CC[C@]4(C)[C@H]3[C@@H](O)C[C@]12C", "inactive"],
  ["Cc1cc(O)c2c(O)c3c(O)cccc3cc2c1", "inactive"],
  ["COc1cc2c(N3CCN(C(=O)Nc4ccc(OC(C)C)cc4)CC3)ncnc2cc1OCCCN1CCCCC1", "inactive"]
]}

---

- EXPERIMENTAL_DETAILS: qHTS assay for identifying genotoxic compounds that show differential cytotoxicity against isogenic chicken DT40 cell lines with known DNA damage response pathways - Rev3 mutant cell line (AID 743014); also: nearly all actives have a fitted effect of over 55% in size
- CONDITION_SET: chicken DT40 Rev3-/- viability, CellTiter-Glo, 40 h; series mostly up to 68.4 µM
Records with an inconclusive call do not appear. Calls of active or inactive are those of the source. Calls follow the shape of the dose curve; as a rule, active = well fitted cell-killing curve with a large enough effect in the repeat runs; inconclusive = weak or mixed curves, or effect the other way; inactive = no such curve, though single readings can be large or run the other way.
Classes used: true = active, false = inactive

{"columns": ["MOLECULE", "CLASS_ASSIGNMENT"],
 "data": [
  ["O=C(O)c1cccc(O)c1", "false"],
  ["CC(=O)OCC(=O)[C@@]12OC(C)(C)O[C@@H]1C[C@H]1[C@@H]3C[C@H](F)C4=CC(=O)C=C[C@]4(C)[C@@]3(F)[C@@H](O)C[C@@]12C", "false"],
  ["C[N+](C)(C)CCOC(N)=O", "false"],
  ["CCCc1c(OCCCOc2ccc(OCC(=O)O)cc2)ccc(C(C)=O)c1O", "false"],
  ["CC(C)(CCl)c1ccccc1", "false"],
  ["CCCCC1C(=O)N(c2ccccc2)N(c2ccc(O)cc2)C1=O (stereo not given)", "true"],
  ["CC1C2CC(CC2C2CCCC(O)C2)C1(C)C (stereo not given)", "true"],
  ["CC(=O)Nc1ccc(N)cc1", "false"],
  ["COc1ccc(C(=O)c2cccc(O)c2)c(OC)c1", "false"],
  ["COc1ccccc1N=Nc1c(S(=O)(=O)O)cc2cc(S(=O)(=O)O)cc(NC(C)=O)c2c1O", "true"],
  ["Cc1cc(O)c2c(O)c3c(O)cccc3cc2c1", "false"],
  ["O=C(Nc1ccc([N+](=O)[O-])cc1)Nc1ccc([N+](=O)[O-])cc1", "true"],
  ["Oc1cc(O)c(Cl)cc1Cl", "false"],
  ["O=C(O)Cc1ccc(-c2ccccc2)cc1", "false"],
  ["Cc1nccn1-c1ccc(Sc2cccc(C3(C(N)=O)CCOCC3)c2)cc1", "true"],
  ["Nc1nccs1", "false"],
  ["CCCCCCOC(=O)C(C)C", "false"],
  ["COc1ccc(CCC(=O)c2c(O)cc(O[C@@H]3O[C@H](CO)[C@@H](O)[C@H](O)[C@H]3O[C@@H]3O[C@@H](C)[C@H](O)[C@@H](O)[C@H]3O)cc2O)cc1O", "false"],
  ["CC(C)C(=O)O", "false"],
  ["CCCCCCCCCCCCCCCCBr", "false"],
  ["CCC(C(=O)OCCOCCN(CC)CC)c1ccccc1 (stereo not given)", "true"],
  ["COCC(O)CO (stereo not given)", "false"],
  ["CCC(C)=O", "false"],
  ["C1COCO1", "false"],
  ["O=C(N[C@@H](c1ccccc1)[C@@H]1CCCCN1)c1cccc(C(F)(F)F)c1Cl", "true"],
  ["CC(=O)[C@H]1CC[C@H]2[C@@H]3C=CC4=CC(=O)CC[C@@]4(C)[C@@H]3CC[C@]12C", "true"],
  ["COC(=O)CC(=O)C(C)(C)C", "true"],
  ["C/C=C/C=C/CCCCCCCO", "true"],
  ["CC[C@H](NC(=O)c1cc(F)ccc1NS(=O)(=O)c1cccc2cccnc12)c1ccccc1", "true"],
  ["CC(=O)Oc1ccc2c(c1)CC[C@@H]1[C@@H]2CC[C@]2(C)[C@@H](O)CC[C@@H]12", "true"],
  ["CC(C)(C)C(=O)C(Oc1ccc(Cl)cc1)n1ccnc1 (stereo not given)", "true"],
  ["CCCCC(CC)CNCC(CC)CCCC (stereo not given)", "false"],
  ["COc1cc2c(cc1OC)-c1cc(=Nc3c(C)cc(C)cc3C)n(C)c(=O)n1CC2", "true"],
  ["COC(=O)Nc1nc2ccc(C(=O)c3cccs3)cc2[nH]1", "true"],
  ["O=c1[nH]c2ccc(S(=O)CCN3CCC(Cc4ccc(F)cc4)CC3)cc2o1 (stereo not given)", "true"],
  ["C[Si](NC1CCCCC1)(NC1CCCCC1)NC1CCCCC1", "true"],
  ["CC(=O)Nc1ccccc1C", "false"],
  ["O=C(N/N=C/c1ccc([N+](=O)[O-])o1)c1ccc(O)cc1", "true"],
  ["CC1CC(=O)NN=C1c1ccc(NCC(C)(C)NCC(O)COc2cc(Cl)ccc2C#N)cc1 (stereo not given)", "true"],
  ["NC(=O)Nc1ccc(Cl)cc1", "false"]
]}

---

- EXPERIMENTAL_DETAILS: qHTS assay to identify small molecule agonists of the constitutive androstane receptor (CAR) signaling pathway - cell viability counter screen (AID 1224836); also: nearly all actives have a fitted effect of over 45% in size
- CONDITION_SET: HepG2-CYP2B6-hCAR viability, CellTiter-Fluor, 23 h, PK11195 added to every well; series mostly up to 92.4 µM
Records with an inconclusive call do not appear. Calls of active or inactive are those of the source. Calls come from the whole dose curve; as a rule, active = well fitted cell-killing curve with a large enough effect in the repeat runs; inconclusive = weak or mixed curves, or effect the other way; inactive = flat fitted curve, though single readings scatter.
Classes used: true (1) for active, false (0) for inactive

{"columns": ["COMPOUND", "CLASS_ASSIGNMENT"],
 "data": [
  ["Cc1ccc(/C=N/n2c(-c3ccccc3)csc2=S)cc1", "false (0)"],
  ["O=C(CCCN1CCC(O)(c2ccc(Br)cc2)CC1)c1ccc(F)cc1", "false (0)"],
  ["COCc1c(C(C)C)nc(C(C)C)c(/C=C/[C@@H](O)C[C@@H](O)CC(=O)O)c1-c1ccc(F)cc1", "false (0)"],
  ["C[C@]12CCC(=O)C=C1C=C[C@@H]1[C@@H]2CC[C@@]2(C)[C@H]1CC[C@@]21CCC(=O)O1", "false (0)"],
  ["CC(=O)N(c1onc(C)c1C)S(=O)(=O)c1ccc(N)cc1", "false (0)"],
  ["CCCCN(CCCC)C(=S)SSC(=S)N(CCCC)CCCC", "false (0)"],
  ["CC(C)(C)CC(C)(C)c1ccc(OCCO)cc1", "true (1)"],
  ["O=C(O)c1cccnc1C(=O)O", "false (0)"],
  ["CC1=CC(O)CC(C)(C)C1 (centres undefined)", "false (0)"],
  ["c1ccc(COCc2ccccc2)cc1", "false (0)"],
  ["CC(=O)[C@H]1CC[C@H]2[C@@H]3C[C@H](C)C4=CC(=O)CC[C@]4(C)[C@H]3[C@@H](O)C[C@]12C", "false (0)"],
  ["CCC1(C)CC(=O)NC1=O (centres undefined)", "false (0)"],
  ["CCCCN(CCCC)CCCOC(=O)c1ccc(N)cc1", "false (0)"],
  ["C[Si](NC1CCCCC1)(NC1CCCCC1)NC1CCCCC1", "false (0)"]
]}
